Attribute: pKi
- Target under test: Casein kinase II subunit alpha (Zea mays)
- Sequence (P28523 whole entry): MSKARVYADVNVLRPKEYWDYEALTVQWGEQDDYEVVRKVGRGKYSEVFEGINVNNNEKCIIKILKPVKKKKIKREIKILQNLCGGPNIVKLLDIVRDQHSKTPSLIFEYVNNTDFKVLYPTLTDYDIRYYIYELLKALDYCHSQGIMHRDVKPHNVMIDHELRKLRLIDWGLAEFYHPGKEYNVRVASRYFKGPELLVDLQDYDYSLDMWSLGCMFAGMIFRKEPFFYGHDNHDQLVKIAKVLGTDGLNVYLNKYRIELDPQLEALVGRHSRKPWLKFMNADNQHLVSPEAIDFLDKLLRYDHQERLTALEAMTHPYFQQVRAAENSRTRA
- Procedure details: Kinase Inhibition Assay
- Assay conditions: pH 7.5; 22 °C
pKi: −log10 of the molar value.

Molecule	pKi
O=C1c2cccc(O)c2C(=O)c2c(O)cccc21 [1,8-dihydroxy-anthraquinone]	< 4.40

Exercise: Consider the molecule shown here: O=c1c2c(O)cccc2oc2cccc(O)c12 [1,8-dihydroxy-9H-xanthen-9-one] What is its recorded pKi?
Solution: < 4.40
